Entries annotated with measured yeast fitness
B1: tRNA (parent)
chain: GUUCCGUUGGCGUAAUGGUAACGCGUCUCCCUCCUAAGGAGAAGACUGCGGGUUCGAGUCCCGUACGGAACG

Variants of: B1
Procedure Details: yeast fitness relative to wild type (ratio to wild type); higher = fitter; tRNA-Arg(CCU), competitive growth, 37 C, YPD
This sample holds only a part of the variants without activity.

Known results for variants:
GUUCCGUUGGCUUAAUGGUAACGCGUCUCCCUCCUAAAGAGAAGACUGCGGAUUCCAGUCCCGUACGGAACG [G12U G38A G52A G56C] = ≤ 0.5
GUUCGGUUGGCGGUAUGGUAACGCGUCUCCCUCCUAAGGAGAAGACUCCGGGUUCGAGUCCCGUACGGAACG [C5G U13G A14U G48C] = ≤ 0.5
GUUCGGUUGGCGUAAUGGUAACGCGUCUCCCUCCUAAGGAGAAGACUGCGGGUUCGAGUCCCAUACGGAACG [C5G G63A] = 0.843
GUUCCGUUCGCAUAAUGGUAACGCGUCUCCCUCCUAAGGAGAAGACUCCGGGUUCGAGUCCAGUACGGAACG [G9C G12A G48C C62A] = ≤ 0.5
GUUCCGUUGGCGUAAUGGUAACCCGUCUCCCUCCUAAGGAGAAGACUGCGGGUUCGAGUCUCGUAGGGAUCG [G23C C61U C66G A70U] = 0.562

Recorded yeast fitness of GUUCCGUUGGCGUAAUGGUAACCCGUCUCCCUCCUAAGGAGAUGACUGCGGGUUCGAGUCCCGUACGGAACG [G23C A43U] , please. 0.733

Next variant: GUUCUGUUGGCGUAAUGGUAAUGCGUCUCCCUCCUACGGAGAAGACUUCGGGUUAGAGUCCCGUACGGAACG [C5U C22U A37C G48U C55A] ≤ 0.5

Let us now turn to GUUCCGUUGACGUAAUGGUAACGCGUCUCCAUCCUAAGGAGAAGACUGCGGGUUCGAGUCCCGUACGGAACG [G10A C31A] 0.637
